- Test system: HL-60
- PROCEDURE_TEXT: NCI tumour cell line growth inhibition, 48 h
Calls of active or inactive are those of the source. Rule as the data show it: active = GI50 up to about 1.1 µM and inactive = higher.
I would appreciate it if you answered using one of these outcomes: 1 (active), 0 (inactive)

Previously resolved entries follow.
>>> class_label("C=CCN(c1cc(O)c2c(c(C)cn2S(=O)(=O)c2ccccc2)c1[N+](=O)[O-])S(C)(=O)=O")
0
>>> class_label("O/N=C1/C2CC3CC1(c1ccccc1)CC(/C3=N/O)/C2=N\\O (stereo not given)")
0
>>> class_label("Cc1cc(Cl)ccc1NC(=O)C1C(=O)N(c2ccc(Cl)cc2C)C(=O)/C1=N\\N (stereo not given)")
0
>>> class_label("CN1CC=C(OP(=O)(NCc2ccccc2)N(CCCl)CCCl)CC1 (stereo not given)")
0
>>> class_label("O=C(N/N=C(COc1ccc(Cl)cc1)\\N=C\\c1ccncc1)c1ccncc1")
0
>>> class_label("CCCCc1ccc(Nc2nc(N)c3ncn(COCCO)c3n2)cc1")
0
>>> class_label("Nc1ccccc1-n1c2c(c3ccccc3c1=O)C(=O)c1ccccc1-2")
1
>>> class_label("O=[N+]([O-])c1ccc(COc2cccc3cccnc23)cc1")
0

Dear colleague, could you share the recorded outcome for O=C(O)CCC(NC(=O)c1ccc(CNc2nc3cc(C(F)(F)F)ccc3nc2C(=O)O)cc1)C(=O)O (stereo not given) when you have a moment?
0

Fill in: this test's call for C[C@@H]1Nc2cc(NC(=O)OCCF)nc(N)c2N=C1c1ccccc1 is ___
1

Returns: the outcome recorded for Nc1nc(SCc2ccccc2Cl)c2[nH]cnc2n1 in this assay.
0

Query: recorded result category for CCC1(OC(=O)CN2CCN(CCO)CC2)C(=O)OCc2c1cc1n(c2=O)Cc2cc3ccccc3nc2-1 (stereo not given) in this test
1

State the result this test recorded for CC1(C)c2ccccc2N2C(c3ccccc3)=NOC21C (stereo not given) .
0

###

- Tested on: DMS-273
- PROCEDURE_TEXT: NCI tumour cell line growth inhibition, 48 h
Calls of active or inactive are those of the source. Cut-off read from the data, not from the text of the source: active = GI50 up to about 1.1 µM and inactive = higher.
I'd appreciate it if you could supply GI50 values for the items below.

Record excerpt, results attached:
>>> recorded_result("CN(C)C(=S)/N=c1\\ss/c(=N\\S(=O)(=O)c2ccccc2)n1N(C)C")
"92 µM (inactive)"
>>> recorded_result("Nc1nc(=O)[nH]c2c1cnn2C1CCCCO1 (centres undefined)")
"> 100 µM (inactive)"
>>> recorded_result("CC(C)=CC(=O)Cc1nc2ccccc2[nH]c1=O")
"> 100 µM (inactive)"
>>> recorded_result("COC(=O)c1nn(C(=N)c2ccc(Cl)cc2)c2c1CCCCC2")
"> 100 µM (inactive)"
>>> recorded_result("COc1ccc(/C=C/c2cc(OC)c(OCc3ccccc3)c(OC)c2)cc1")
"71.6 µM (inactive)"

// for each compound below, give its GI50
1. c1ccc(C(c2ccccc2)c2ccccn2)cc1
2. Clc1ccc(C(n2cc(Br)cn2)n2cc(Br)cn2)cc1
3. CCc1ccccc1NC(=O)CC1NC(=O)CS1 (centres undefined)
4. CCO/C=C1\N=C(c2ccc(Cl)c(Cl)c2)OC1=O
5. CC1(C2CCC3(C)OC3C2)CO1 (centres undefined)
6. Nc1nc(SCc2ccccc2Cl)c2[nH]cnc2n1

1. > 100 µM (inactive)
2. 18.8 µM (inactive)
3. > 100 µM (inactive)
4. > 100 µM (inactive)
5. > 100 µM (inactive)
6. 41 µM (inactive)

Batch request: GI50 for each of the following compounds.
1. Cc1ccc(-n2c3nc(=O)n(C)c(=O)c-3nc3ccccc32)c(C)c1
2. CN(C)NC(=O)NC12CC3CC(CC(C3)C1)C2

1: 4.34 µM (inactive); 2: > 100 µM (inactive)

Please give GI50, item by item, for the list that follows.
1. O=C(O)[C@@H](NS(=O)(=O)c1ccc(F)cc1)c1ccccc1
2. CCCOP1(=O)C=C(C)C(Cl)=C(C)C1 (centres undefined)
3. CC12C(=CC(=O)CC1SCCS(=O)(=O)O)C(C#N)=C(N)N2c1ccc(Cl)c(Cl)c1 (centres undefined)
4. CN(CC1NCCCC1O)C12CC3CC(CC(C3)C1)C2 (centres undefined)

["> 100 µM (inactive)", "14.6 µM (inactive)", "> 100 µM (inactive)", "> 100 µM (inactive)"]

// each compound listed below needs its GI50
1. COC(=O)C(=O)C(C(=O)C(=O)Nc1cc([N+](=O)[O-])ccc1C#N)c1nc2ccccc2nc1O (centres undefined)
2. O=C(n1c2ccccc2c2nnc(S)nc21)C(F)(F)F

> 100 µM (inactive)
> 100 µM (inactive)

###

- Tested on: A549
- PROCEDURE_TEXT: NCI tumour cell line growth inhibition, 48 h
Activity calls are given as the source filed them. No stated cut-off is given here; in the data, active = GI50 up to about 1.1 µM and inactive = higher.
Would you kindly list GI50 for each of these compounds?

Answered cases to consult:
>>> recorded_result("CC(=O)Oc1cc2c(n(C)c1=O)-c1ccccc1C2")
"63.7 µM (inactive)"
>>> recorded_result("COc1cc(Cl)c2c3c(c(C(=O)c4ccccc4)oc13)CCC2")
"> 100 µM (inactive)"
>>> recorded_result("Cc1c2c(n(CCc3ccc(Cl)cc3)c1C)NN=C(C#N)S2(=O)=O")
"> 100 µM (inactive)"
>>> recorded_result("O=c1cc(CO)oc2c3c(cc(O)c12)OCC(COC1OC(CO)C(O)C(O)C1O)=CC3 (stereo unspecified)")
"> 100 µM (inactive)"
>>> recorded_result("Oc1ccc2ccccc2c1/N=N/c1ccsc1")
"> 100 µM (inactive)"

# query: GI50 of entry COc1ccc2c(c1)[n+]([O-])c(/C(C)=N/NC(=O)CC#N)c[n+]2[O-]
> 100 µM (inactive)

###

- System: K562
- PROCEDURE_TEXT: NCI tumour cell line growth inhibition, 48 h
The source made the active and inactive calls. No stated cut-off is given here; in the data, active = GI50 up to about 1.1 µM and inactive = higher.
Reply using exactly one outcome from True for active, False for inactive

>>> class_label("COc1ccc(NS(=O)(=O)c2ccc(NC(NC(=O)CC(C)C)(C(F)(F)F)C(F)(F)F)cc2)nn1")
"False"
>>> class_label("Cc1cc(-c2ccc(C(=O)C(Cl)(Cl)Cl)[nH]2)on1")
"False"
>>> class_label("O=C(/C=C/c1ccc2c(c1)OCO2)CC(=O)/C=C/c1ccc2c(c1)OCO2")
"False"
>>> class_label("CC(=O)Oc1cc2c(n(C)c1=O)-c1ccccc1C2")
"False"
>>> class_label("O=c1c2ccccc2c2nc3ccccc3nc2n1C1CCCCC1")
"False"
>>> class_label("O=C1OCC2=Nc3cccc4cccc(c34)N12")
"False"
>>> class_label("O=c1[nH]/c(=C/c2cccs2)c(=O)[nH]/c1=C/c1ccc(OCc2ccccc2)cn1")
"True"
>>> class_label("Nc1nncc2[nH]cnc12")
"False"

Given C=C(N=[N+]=[N-])c1cn(C2CC(O)C(CO)O2)c(=O)[nH]c1=O (stereo unspecified) , state the outcome it received in this test.
False

What call does the record list for C#CCC1(C(=O)OCC)C(=O)c2ccccc2N(C)C1=O (stereo unspecified) ?
False

###

- Test system: UACC-257
- PROCEDURE_TEXT: NCI tumour cell line growth inhibition, 48 h
The source made the active and inactive calls. Rule as the data show it: active = GI50 up to about 1.1 µM and inactive = higher.
Please go through the items and note down their GI50.

>>> recorded_result("CC1(C(=O)O)CCCC1C(=O)O (stereo not drawn)")
"> 100 µM (inactive)"
>>> recorded_result("CC[C@@]1(O)C(=O)OCc2c1cc1n(c2=O)Cc2c-1nc1ccccc1c2/C=N\\NC(=O)C(N)Cc1c[nH]c2ccccc12 (stereo partly drawn)")
"1.96 µM (inactive)"
>>> recorded_result("CC(C)(C)c1cc(C(=O)/C=C/c2c(Cl)cccc2Cl)cc(C(C)(C)C)c1O")
"5.6 µM (inactive)"
>>> recorded_result("CCOC(=O)CN(c1ccccc1)c1nc(=[N+](C)C)ss1")
"24.3 µM (inactive)"

Please supply GI50 for each of the following items, keeping them in order.
1. COc1cc2c(cc1O)C1C(O)C(O)C=C3CCN(C2)C31 (stereo not drawn)
2. CCCC1C(CC)C(NC)C(C#N)(C#N)C1(C#N)C#N (stereo not drawn)
3. O=[N+]([O-])c1cc(Cl)c(Cl)cc1[N+](=O)[O-]
4. CC(=O)Nc1c(S(=O)(=O)c2ccccc2)c(C)c(C)n1Cc1ccccc1
5. Cc1nc2c(O)cccc2c(=O)[nH]1

2.67 µM (inactive)
16.7 µM (inactive)
2.15 µM (inactive)
> 100 µM (inactive)
555 µM (inactive)

###

- Test system: SK-MEL-2
- PROCEDURE_TEXT: NCI tumour cell line growth inhibition, 48 h
The source made the active and inactive calls. Rule as the data show it: active = GI50 up to about 1.1 µM and inactive = higher.
// allowed return values: active, inactive

Known results for molecules:
>>> class_label("N#Cc1c(-c2ccccc2)nc(-c2ccccc2)sc1=S")
"inactive"
>>> class_label("Nc1nc(=O)[nH]c2c1cnn2C1CCCCO1 (stereo unspecified)")
"inactive"
>>> class_label("C=C1C(O)C[C@H](OC(C)=O)[C@]2(C)C1C(OC(C)=O)[C@]1(C(C)(C)O)CC(O)C(C)=C1[C@@H](OC(=O)c1ccccc1)C2OC(C)=O (stereo partly specified)")
"inactive"

Test call, this molecule: C=C(N=[N+]=[N-])c1cn(C2CC(O)C(CO)O2)c(=O)[nH]c1=O (stereo unspecified)
inactive

Could you please tell me the result logged for O=c1cnn(C/C=C/CO)c(=O)[nH]1 in this assay?
inactive

Recorded call for O=S(=O)(O)c1ccc(/N=N/c2ccc(/N=N/c3c(O)c(S(=O)(=O)O)cc4cc(S(=O)(=O)O)ccc34)cc2)cc1 ?
inactive

For C[C@]12CC[C@H](O)CC1CCC[C@@H]2O (stereo partly specified) , what call appears in the results of this test?
inactive

Status in this test for NC(=O)C1=NNc2ccccc2C(=O)N1c1ccccc1 ?
inactive
